Target: T1, Recombinant Human DLL4 (human, UniProt Q9NR61 27-524)
T1 construct: Bought recombinant human DLL4 (R&D Systems Cat#1506-D4/CF); That entry includes the signal peptide (amino acids 1-25), the transmembrane region and the cytoplasmic domain; also called delta-like protein 4; Delta-like ligand 4
Experiment: ELISA, DLL4 coated on plate, Fab in solution, absorbance at 450 nm; signal minus noise
quantity_kind: ELISA (Signal-Noise)
Please respond with just the number, no unit label.

Below: 3 binders and their reported ELISA (Signal-Noise).
# binder, ELISA (Signal-Noise)
data = [
    ("Fab VH5-51_IGHD5-18*01>3_IGHJ4*01 G100K/G104T S28A & V3-4_IGLJ1*01 (Fab, V domains shown, Fab expressed in E. coli with CH1 (plasmid A, His6 and Flag tags) and lambda CL (plasmid E); also called KT S28A) VH: EVQLVQSGAEVKKPGESLKISCKGSGYAFTSYWIGWVRQMPGKGLEWMGIIYPGDSDTRYSPSFQGQVTISADKSISTAYLQWSSLKASDTAMYYCARRKYSYTYDYFDYWGQGTLVTVSS VL: QTVVTQEPSFSVSPGGTVTLTCGLSSGSVSTSYYPSWYQQTPGQAPRTLIYSTNTRSSGVPDRFSGSILGNKAALTITGAQADDESDYYCVLYMGSGISYVFGTGTKVTVL", 0.01),
    ("Fab VH5-51_IGHD5-18*01>3_IGHJ4*01 G100K/G104T G24A & V3-4_IGLJ1*01 (Fab, V domains shown, Fab expressed in E. coli with CH1 (plasmid A, His6 and Flag tags) and lambda CL (plasmid E); also called KT G24A) VH: EVQLVQSGAEVKKPGESLKISCKASGYSFTSYWIGWVRQMPGKGLEWMGIIYPGDSDTRYSPSFQGQVTISADKSISTAYLQWSSLKASDTAMYYCARRKYSYTYDYFDYWGQGTLVTVSS VL: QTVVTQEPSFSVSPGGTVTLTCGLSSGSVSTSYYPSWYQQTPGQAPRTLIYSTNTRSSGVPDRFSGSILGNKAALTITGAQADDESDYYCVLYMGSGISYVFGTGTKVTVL", 0.02),
    ("Fab VH5-51_IGHD5-18*01>3_IGHJ4*01 G100K/G104T G35A & V3-4_IGLJ1*01 (Fab, V domains shown, Fab expressed in E. coli with CH1 (plasmid A, His6 and Flag tags) and lambda CL (plasmid E); also called KT G35A) VH: EVQLVQSGAEVKKPGESLKISCKGSGYSFTSYWIAWVRQMPGKGLEWMGIIYPGDSDTRYSPSFQGQVTISADKSISTAYLQWSSLKASDTAMYYCARRKYSYTYDYFDYWGQGTLVTVSS VL: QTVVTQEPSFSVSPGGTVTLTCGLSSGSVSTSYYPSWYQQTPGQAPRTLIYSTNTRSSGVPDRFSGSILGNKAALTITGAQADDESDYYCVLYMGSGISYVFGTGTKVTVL", 0.02),
]

Now look at this entry.
Prompt: I would be grateful if you could share the reported ELISA (Signal-Noise) for Fab VH5-51_IGHD5-18*01>3_IGHJ4*01 G100K/G104T T30A & V3-4_IGLJ1*01 (Fab, V domains shown, Fab expressed in E. coli with CH1 (plasmid A, His6 and Flag tags) and lambda CL (plasmid E); also called KT T30A) VH: EVQLVQSGAEVKKPGESLKISCKGSGYSFASYWIGWVRQMPGKGLEWMGIIYPGDSDTRYSPSFQGQVTISADKSISTAYLQWSSLKASDTAMYYCARRKYSYTYDYFDYWGQGTLVTVSS VL: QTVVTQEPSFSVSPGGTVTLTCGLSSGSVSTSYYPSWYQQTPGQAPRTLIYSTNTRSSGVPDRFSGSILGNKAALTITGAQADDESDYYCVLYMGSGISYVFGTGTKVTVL .
Response: 0
